# system: UDP-3-O-acyl-N-acetylglucosamine deacetylase (Pseudomonas aeruginosa (strain ATCC 15692 / PAO1 / 1C / PRS 101 / LMG12228), UniProt P47205)
# Sequence (P47205 whole entry): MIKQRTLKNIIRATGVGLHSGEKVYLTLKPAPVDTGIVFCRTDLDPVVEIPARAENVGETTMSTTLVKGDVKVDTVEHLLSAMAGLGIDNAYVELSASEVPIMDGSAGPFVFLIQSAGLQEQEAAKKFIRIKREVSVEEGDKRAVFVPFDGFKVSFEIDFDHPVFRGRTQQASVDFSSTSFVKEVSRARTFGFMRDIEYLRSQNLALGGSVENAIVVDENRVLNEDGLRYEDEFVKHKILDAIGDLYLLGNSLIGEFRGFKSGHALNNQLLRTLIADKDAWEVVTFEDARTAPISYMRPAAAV
# protocol-text: Inhibition of Pseudomonas aeruginosa UDP-3-O-acyl-N-acetylglucosamine Deacetylase (LpxC) in vitro.
pIC50: −log10 of the molar value.
measure-name: pIC50

>  <molecule>
O=C(NO)C1COC(c2ccc([N+](=O)[O-])cc2)=N1 (stereo not given)

>  <recorded-value>
5.27

$$$$
>  <molecule>
CCCc1cc(C2=NC(C(=O)NO)CS2)cc(OC(F)(F)F)c1OC (stereo not given)

>  <recorded-value>
4.75

$$$$
>  <molecule>
C=CCCOc1ccc(C(=O)NC(CO)C(=O)NO)cc1 (stereo not given)

>  <recorded-value>
5.41

$$$$
>  <molecule>
O=C(NO)C1COC(c2ccc(COc3cccc([N+](=O)[O-])c3)cc2)=N1 (stereo not given)

>  <recorded-value>
6.25

$$$$
>  <molecule>
CCCc1cc(C2=NC(C(=O)NO)CO2)ccc1F (stereo not given)

>  <recorded-value>
6.02

$$$$
>  <molecule>
O=C(NO)C1CSC(c2ccc(OC(F)(F)F)cc2)=N1 (stereo not given)

>  <recorded-value>
4.66

$$$$
>  <molecule>
Cc1ccc(C2=NC(C(=O)NO)CO2)cc1 (stereo not given)

>  <recorded-value>
4.70

$$$$
>  <molecule>
CCCc1ccc(-c2ccc(C3=NC(C(=O)NO)CO3)cc2)cc1 (stereo not given)

>  <recorded-value>
6.55

$$$$
>  <molecule>
O=C(NO)C1COC(c2ccc(F)c(Br)c2)=N1 (stereo not given)

>  <recorded-value>
5.31

$$$$
>  <molecule>
O=C(NO)C1COC(c2ccc(Br)cc2)=N1 (stereo not given)

>  <recorded-value>
5.57

$$$$

(A) CCOc1cc(C(=O)NC(CO)C(=O)NO)ccc1F (stereo not given)
(B) CCCCn1nc2ccccc2c1C1=NC(C(=O)NO)CO1 (stereo not given)
(C) O=C(NO)C1COC(c2ccc(I)cc2)=N1 (stereo not given)
q: Order the records by pIC50, with each subsequent value no larger than the one before. Respond with an ordered listing of the labels, as requested.
a: C, B, A

(a) C=CCCOc1ccc(C2=NC(C(=O)NO)CO2)cc1 (stereo not given)
(b) CCCCn1nc(C2=NC(C(=O)NO)CO2)c2ccccc21 (stereo not given)
(c) C=CCOc1ccc(C2=NC(C(=O)NO)CO2)cc1C(F)(F)F (stereo not given)
q: Rank items: key pIC50, increasing. Respond with an ordered listing of the labels, as requested.
a: b, a, c

====

# system: UDP-3-O-acyl-N-acetylglucosamine deacetylase (Pseudomonas aeruginosa (strain ATCC 15692 / PAO1 / 1C / PRS 101 / LMG12228), UniProt P47205)
# protocol-text: Inhibition of Pseudomonas aeruginosa UDP-3-O-acyl-N-acetylglucosamine Deacetylase (LpxC) in vitro.
measure-name: IC50 (µM)

>  <compound>
C=CCOc1ccc(C2=NC(C(=O)NO)CO2)cc1OC(F)(F)F (stereo not given)

>  <output-unit>
µM

>  <IC50>
0.12

$$$$
>  <compound>
CC(C)=CCOc1ccc(C2=NC(C(=O)NO)CO2)cc1OC(F)(F)F (stereo not given)

>  <output-unit>
µM

>  <IC50>
0.19

$$$$
>  <compound>
O=C(NO)C1COC(c2ccc(F)c(C(F)(F)F)c2)=N1 (stereo not given)

>  <output-unit>
µM

>  <IC50>
1.3

$$$$
>  <compound>
O=C(NO)C1COC(c2ccc(OC(F)(F)F)c(Cl)c2)=N1 (stereo not given)

>  <output-unit>
µM

>  <IC50>
30

$$$$
>  <compound>
O=C(NO)C1CSC(c2ccc(F)cc2)=N1 (stereo not given)

>  <output-unit>
µM

>  <IC50>
62.5

$$$$

(I) CCOc1cc(C2=NC(C(=O)NO)CO2)ccc1F (stereo not given)
(II) CCCc1cc(C2=NC(C(=O)NO)CO2)cc(OC(F)(F)F)c1OC (stereo not given)
(III) O=C(NO)C1CCOC(c2cc3cc(F)ccc3[nH]2)=N1 (stereo not given)
(IV) O=C(NO)C1COC(c2[nH]nc3ccccc23)=N1 (stereo not given)
q: Rank items: key IC50, increasing. Respond with an ordered listing of the labels, as requested.
a: II, I, IV, III

(I) O=C(NO)C1COC(c2ccc(OC(F)(F)F)cc2)=N1 (stereo not given)
(II) O=C(NO)C1COC(c2ccc(OCc3cccc(F)c3)c(OC(F)(F)F)c2)=N1 (stereo not given)
(III) O=C(NO)C1COC(c2ccc(OCc3ccccc3C(F)(F)F)c(F)c2)=N1 (stereo not given)
(IV) Cc1cc(C2=NC(C(=O)NO)CO2)ccc1F (stereo not given)
q: Rank items: key IC50, increasing. Respond with an ordered listing of the labels, as requested.
a: II, IV, I, III
(II: 0.25 µM, IV: 1.2 µM, I: 5 µM, III: 9.6 µM)
